assay-notes: NCI Yeast Anticancer Drug Screen. Data for the mec2-1 strain (AID 157)
condition-context: S. cerevisiae mec2-1 strain, at 50.0 µM, stronger effect = higher value
Procedure: Growth inhibition of yeast strains with defined genetic alterations is measured as a screen for potential anti-cancer activity. Selected strains with alterations in DNA damage repair or cell cycle control were exposed to compounds and growth inhibition was measured relative to vehicle treated controls. The strain used in this assay is mec2-1
This is part of a sample that, as a whole, favours compounds with a hit. Of some 79,000 tested, about 15% had one in any assay. Where a SMILES comes first, the peptide text is derived from it. The star is where a group is joined. Boc = CC(C)(C)OC(=O)*; OtBu = CC(C)(C)O*
Hi there, I'd appreciate the recorded growth inhibition for every entry that follows.
Numbers only, in %.

Here are 4 compounds together with their reported answers.
compound	measured-quantity	reading
CC(C)(C)OC(=O)CC(NC(=O)OC(C)(C)C)C(=O)NC(Cc1ccccc1)C(N)=O (stereo not given) (Boc-Asp(OtBu)-Phe-NH2; configuration not given here)	growth inhibition	6.85
Cc1ccc(NC(=O)C(=O)C(C2C(C)CC(=O)C2CC(=O)O)[N+](=O)[O-])cc1 (stereo not given)	growth inhibition	11.7
Cc1cccc(NC(=O)Nc2ccccc2)n1	growth inhibition	0.9
CCCCNc1ccc(Cl)cc1	growth inhibition	-5.4

## Task Specify reported growth inhibition for the compound shown: `COc1ccc(-c2cc(C(=O)O)c3cccc(C)c3n2)cc1`
## Result -1.7

---

assay-notes: NCI Yeast Anticancer Drug Screen. Data for the mec2-1 strain (AID 157)
condition-context: S. cerevisiae mec2-1 strain, at 50.0 µM, stronger effect = higher value
About 79,000 compounds went through this panel and 15% of them were active in at least one assay; those are over-represented in the sample as a whole.
measured-quantity: growth inhibition (%)
Numbers only, in %.

Here are 3 compounds together with their reported answers.
compound	growth inhibition, %
O=C1C=CC(CCCCCn2ccc(=O)[nH]c2=O)C(=O)N1 (stereo not drawn)	3.15
CCCSc1ccc([N+](=O)[O-])cc1[N+](=O)[O-]	-5.6
COC(=O)c1cc(OC)c2cccnc2c1Nc1ccccc1	12.2

Provide reported growth inhibition for each item, in the same order as listed.
1. CCOC(=O)CN(c1scc(-c2ccccc2)c1C(=O)OCC)S(=O)(=O)c1ccc(C)cc1
2. Cc1cccc(C(=O)OCCCl)c1

## Result
-28.6
-7.5

Provide reported growth inhibition for each item, in the same order as listed.
1. COC(=O)CC1(CC(=O)O)SCCS1
2. O=C(Nc1ccc(Br)cc1)Nc1ccc(Br)cc1
3. CCOC(=O)/C=C/SCC(N)C(=O)OCC (stereo not drawn)

## Result
1: 4.3; 2: 8.15; 3: -1.45

Provide reported growth inhibition for each item, in the same order as listed.
1. COC1OC2COC(C)(c3ccccc3)OC2C(O)C1[NH-].COC1OC2COC(C)(c3ccccc3)OC2C(O)C1[NH-].[Cl][Pt+2][Cl] (stereo not drawn)
2. Cc1ccc2ccccc2c1CSc1nc(N)nc2c1ncn2CC(C)C
3. CCCC1OC(c2ccc(OC)cc2)OCC1CC (stereo not drawn)

## Result
1. -2.7
2. 23.6
3. 0.95

---

Hi there, I'd appreciate the recorded growth inhibition for every entry that follows.
assay-notes: NCI Yeast Anticancer Drug Screen. Data for the sgs1 mgt1 strain (AID 161);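 also: 0% = growth of cultures given vehicle only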
condition-context: S. cerevisiae sgs1 mgt1 strain, at 50.0 µM, stronger effect = higher value
This is part of a sample that, as a whole, favours compounds with a hit. Of some 79,000 tested, about 15% had one in any assay.
Answers are plain numbers, in %.

Here are 3 molecules together with their reported answers.
molecule	reading
CC/C(N)=N\OC(=O)c1ccccc1	-4.45
Cc1ccccc1NCc1ccccc1	15.3
CN(C)CCCNc1ccc([N+](=O)[O-])c2nc3ccccc3c(N)c12	6.45

Provide reported growth inhibition for each item, in the same order as listed.
1. NCCNc1ncnc2ccccc12
2. CC(=O)Nc1cccc(F)c1
3. CC1CCC(C(=O)O)CC1 (configuration not stated)
4. CC(C)OC(=O)Oc1ccccc1Cl
5. Cc1cc(C)nc(C)c1.[Cl-].[Cl-].[Cl-].[Cl-].[Pt+2]
6. CC(=O)CSc1cc(C)c2ccccc2n1

## Result
1. -1.75
2. -25.4
3. -2
4. -13.6
5. -7.5
6. -11.1
